system: S. cerevisiae Mot1-301 ts growth rescue, BacTiter-Glo ATP luminescence; test: restored Mot1-301 yeast growth at 38.5C – whole organism, S. cerevisiae, Mot1-301 ts mutant, luminescence, dose retest, SUMOylation pathway inhibitor project, confirmation (AID 463204);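 further: growth at restrictive 38.5 degrees C of Mot1-301 OY566 strain; actives raise luminescence by restoring growth of the ts mutant at high temperature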
Activity calls are given as the source filed them.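 How the source made its calls: active means AC50 no more than ten times the top concentration tested, that is within one log above it; inconclusive means flat curve fit with activity between 30% and 70%, or invalid poor fit; inactive means AC50 beyond ten times the top tested dose.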
Hello, when you answer, please use one of the following outcomes: active, inactive

Worked examples, 3 compounds total:
COCCn1c(SCC(=O)N2CCCC2)nnc1-c1ccoc1C = inactive
CN(C)C(=O)CSc1nc2ccc(N3C(=O)c4ccccc4C3=O)cc2s1 = inactive
Cc1ccc(C(C(=O)Nc2ccc3c(c2)OCO3)N(C)C(=O)/C=C\c2ccc3c(c2)OCO3)cc1 (configuration not stated) = inactive

Dear colleague, could you share the recorded outcome for `O=C1Nc2ccccc2/C1=C/c1ccc([N+](=O)[O-])cc1` when you have a moment? inactive

Dear colleague, could you share the recorded outcome for `C/C=C/C(=O)OCC(=O)Nc1nc2ccc(C)cc2s1` when you have a moment? inactive

Dear colleague, could you share the recorded outcome for COc1ccc(Cl)cc1N(C(=O)c1ccco1)C(C(=O)NC1CCCC1)c1ccncc1 (configuration not stated) when you have a moment? inactive

Dear colleague, could you share the recorded outcome for `CC(C)(C)NC(=S)NCc1cccnc1` when you have a moment? inactive

Dear colleague, could you share the recorded outcome for `Cc1ccc(S(=O)(=O)N2CCOCC2)cc1NC(=O)COC(=O)CCC(=O)c1cccs1` when you have a moment? inactive

Dear colleague, could you share the recorded outcome for `COc1ccc(C(=O)Nn2c(SCC(=O)NCc3ccccc3)nc3ccccc3c2=O)cc1` when you have a moment? inactive

Dear colleague, could you share the recorded outcome for `COc1cc(/C=C(\C#N)C(=O)Nc2ccc(C(=O)O)cc2)ccc1OC(=O)c1cccc(F)c1` when you have a moment? inactive

Dear colleague, could you share the recorded outcome for Cc1ccc(NC(=O)CC2CS(=O)(=O)CC2CC(=O)Nc2ccc(C)c(C)c2)cc1C (configuration not stated) when you have a moment? inactive

Dear colleague, could you share the recorded outcome for `O=[N+]([O-])c1c(NCCCO)cc(Sc2nc3ccccc3s2)c2nonc12` when you have a moment? active

* * *

test system: S. cerevisiae Mot1-301 ts growth rescue, BacTiter-Glo ATP luminescence; assay: restored Mot1-301 yeast growth at 38.5C – whole organism, S. cerevisiae, Mot1-301 ts mutant, luminescence, dose retest, SUMOylation pathway inhibitor project, confirmation (AID 463204)
Active and inactive are the calls of the source.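 How the source made its calls: active means AC50 no more than ten times the top concentration tested, that is within one log above it; inconclusive means flat curve fit with activity between 30% and 70%, or invalid poor fit; inactive means AC50 beyond ten times the top tested dose.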
Hello, when you answer, please use one of the following outcomes: active, inactive

Worked examples, 5 compounds total:
COc1cccc(C2/C(=C(/O)c3ccccc3)C(=O)C(=O)N2Cc2ccco2)c1 (configuration not stated) = inactive
COc1ccccc1N1CCN(C(=O)c2sc3ncnc(N4CCN(c5ccccn5)CC4)c3c2C)CC1 = inactive
Cc1cc(C)n(C(=O)CNC(=O)c2ccc3c(c2)OCCO3)n1 = inactive
O=C(c1cc2c(ccc3ccccc32)oc1=O)N1CCCC1 = inactive
COCCn1c(SCC(=O)NCc2cccs2)nnc1-c1ccc(OC)cc1 = inactive

Dear colleague, could you share the recorded outcome for `O=c1/c(=C/c2ccco2)sc2nc(-c3ccccc3Br)nn12` when you have a moment? active

Dear colleague, could you share the recorded outcome for Cc1cc(C)nc(SCC2COc3ccccc3O2)n1 (configuration not stated) when you have a moment? inactive

Dear colleague, could you share the recorded outcome for `CC(C)c1nc2n[nH]c(N)c2c2c1CCC2` when you have a moment? inactive

* * *

system: S. cerevisiae Mot1-301 ts growth rescue, BacTiter-Glo ATP luminescence; experiment: restored Mot1-301 yeast growth at 38.5C – whole organism, S. cerevisiae, Mot1-301 ts mutant, luminescence, dose retest, SUMOylation pathway inhibitor project, confirmation (AID 463204)
Active and inactive are the calls of the source.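 Rule for the calls: active = AC50 no more than ten times the top concentration tested, that is within one log above it; inconclusive = flat curve fit with activity between 30% and 70%, or invalid poor fit; inactive = AC50 beyond ten times the top tested dose.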
Hello, when you answer, please use one of the following outcomes: active, inactive

CC(NC(=O)c1ccc(Cl)cc1)C(=O)N1CCCCC1 (stereo unspecified) = inactive
COc1ccc(NC(=O)CC(C)C)c(OC)c1 = inactive

Dear colleague, could you share the recorded outcome for `O=C(OCC(=O)N1CCN(Cc2ccccc2)CC1)c1ccc(Cl)cc1` when you have a moment? inactive

Dear colleague, could you share the recorded outcome for `COc1ccc(OC)c(N(CC(=O)N2CCCC2)S(=O)(=O)c2ccccc2)c1` when you have a moment? inactive

Dear colleague, could you share the recorded outcome for `Cc1cc2nc(CCl)cc(=O)n2[nH]1` when you have a moment? inactive

Dear colleague, could you share the recorded outcome for `COc1cc(SC)ccc1C(=O)Nc1cc(C)c(OCC(=O)N2CCOCC2)c(C)c1` when you have a moment? inactive

Dear colleague, could you share the recorded outcome for `CC1(C)NC(=O)N(CCCOc2ccccc2Br)C1=O` when you have a moment? inactive

Dear colleague, could you share the recorded outcome for `CCOP(=O)(Cc1cc(C(=O)CC)c(C)o1)OCC` when you have a moment? inactive

Dear colleague, could you share the recorded outcome for `Cc1ccccc1OCc1nc(-c2ccccc2)no1` when you have a moment? inactive

Dear colleague, could you share the recorded outcome for `CC(C)COc1ccc(C(=O)Nc2ccc([N+](=O)[O-])cc2)cc1` when you have a moment? inactive

Dear colleague, could you share the recorded outcome for `Cc1nc(N)c(Cc2ccccc2F)c(N)n1` when you have a moment? inactive

Dear colleague, could you share the recorded outcome for `O=C1CCC(/C=C/c2ccccc2)=NN1Cc1ccc(Cl)c(Cl)c1` when you have a moment? inactive

Dear colleague, could you share the recorded outcome for `O=C(NC(=S)NNC(=O)c1ccccc1O)c1cccc([N+](=O)[O-])c1` when you have a moment? inactive

Dear colleague, could you share the recorded outcome for `O=C(C[n+]1ccc(C(=O)N/N=C/c2ccc(Cl)cc2Cl)cc1)c1ccccc1` when you have a moment? inactive

Dear colleague, could you share the recorded outcome for `Cc1cccc2nc(COc3ccc4ccccc4c3Br)cn12` when you have a moment? active

Dear colleague, could you share the recorded outcome for `COc1ccc(/C=C/C(=O)NC(=S)Nc2ccccn2)cc1` when you have a moment? inactive

* * *

tested on: S. cerevisiae Mot1-301 ts growth rescue, BacTiter-Glo ATP luminescence; experiment: restored Mot1-301 yeast growth at 38.5C – whole organism, S. cerevisiae, Mot1-301 ts mutant, luminescence, dose retest, SUMOylation pathway inhibitor project, confirmation (AID 463204)
The source made the active and inactive calls.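 How the source made its calls: active means AC50 no more than ten times the top concentration tested, that is within one log above it; inconclusive means flat curve fit with activity between 30% and 70%, or invalid poor fit; inactive means AC50 beyond ten times the top tested dose.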
Hello, when you answer, please use one of the following outcomes: True (active), False (inactive)

CCOC(=O)CNC(=O)c1cccnc1 = False

--- query ---
Dear colleague, could you share the recorded outcome for CC(C)(C)NC(=O)C(c1cccs1)N(Cc1cccs1)C(=O)c1ccc(CN2CCOCC2)o1 (stereo unspecified) when you have a moment? False

* * *

system: S. cerevisiae Mot1-301 ts growth rescue, BacTiter-Glo ATP luminescence; experiment: restored Mot1-301 yeast growth at 38.5C – whole organism, S. cerevisiae, Mot1-301 ts mutant, luminescence, dose retest, SUMOylation pathway inhibitor project, confirmation (AID 463204);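 further: growth at restrictive 38.5 degrees C of Mot1-301 OY566 strain; actives raise luminescence by restoring growth of the ts mutant at high temperature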
Activity calls are given as the source filed them.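 Rule for the calls: active = AC50 no more than ten times the top concentration tested, that is within one log above it; inconclusive = flat curve fit with activity between 30% and 70%, or invalid poor fit; inactive = AC50 beyond ten times the top tested dose.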
Hello, when you answer, please use one of the following outcomes: active, inactive

COCC(=O)n1nc(NCc2ccc(OC)cc2)nc1NCc1ccc(OC)cc1 = inactive
Cn1c(CN2CCOCC2)nnc1SCC(=O)Nc1cc(Cl)ccc1Cl = inactive
O=C(C1CCC(CNc2c(N3CCCCC3)c(=O)c2=O)CC1)N1CCN(C2CCCCC2)CC1 (stereo not drawn) = inactive
Cc1cc(Br)ccc1NC(=O)c1cnc(N2CCN(c3ccccn3)CC2)c2ccccc12 = inactive
COc1cc(-c2nnc(SCC#CCO)o2)cc(OC)c1OC = inactive
COC(=O)c1ccc(Cl)c(NC(=O)CN(c2ccc(OC)c(OC)c2)S(C)(=O)=O)c1 = inactive
CC(=O)c1ccc(N=C2SCCCN2C(=O)C2CCCC2)cc1 = inactive
CCOC(=O)c1oc2ccccc2c1COC(=O)CNC(=O)c1cccc(C)c1 = inactive

--- query ---
Dear colleague, could you share the recorded outcome for `NC(=O)NC(=O)COC(=O)/C=C/c1cccs1` when you have a moment? inactive

* * *

test system: S. cerevisiae Mot1-301 ts growth rescue, BacTiter-Glo ATP luminescence; assay: restored Mot1-301 yeast growth at 38.5C – whole organism, S. cerevisiae, Mot1-301 ts mutant, luminescence, dose retest, SUMOylation pathway inhibitor project, confirmation (AID 463204);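 further: growth at restrictive 38.5 degrees C of Mot1-301 OY566 strain; actives raise luminescence by restoring growth of the ts mutant at high temperature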
Active and inactive are the calls of the source.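 Rule for the calls: active = AC50 no more than ten times the top concentration tested, that is within one log above it; inconclusive = flat curve fit with activity between 30% and 70%, or invalid poor fit; inactive = AC50 beyond ten times the top tested dose.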
Hello, when you answer, please use one of the following outcomes: yes (active), no (inactive)

Dear colleague, could you share the recorded outcome for `COCC(=O)n1nc(-c2ccc(Cl)cc2)nc1NCc1ccc(F)cc1` when you have a moment? no

Dear colleague, could you share the recorded outcome for `O=C(CSc1nc(-c2ccccc2)cc(=O)[nH]1)Nc1ccc(Br)cc1` when you have a moment? no

* * *

Recorded measurements of AC50, one per entry
system: S. cerevisiae Mot1-301 ts growth rescue, BacTiter-Glo ATP luminescence; assay: restored Mot1-301 yeast growth at 38.5C – whole organism, S. cerevisiae, Mot1-301 ts mutant, luminescence, dose retest, SUMOylation pathway inhibitor project, confirmation (AID 463204);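 further: growth at restrictive 38.5 degrees C of Mot1-301 OY566 strain; actives raise luminescence by restoring growth of the ts mutant at high temperature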
The source made the active and inactive calls.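 The calls were made as follows: active = AC50 no more than ten times the top concentration tested, that is within one log above it; inconclusive = flat curve fit with activity between 30% and 70%, or invalid poor fit; inactive = AC50 beyond ten times the top tested dose.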

CCN1CCCC1CN(Cc1cc2ccc(C)cc2[nH]c1=O)C(=S)Nc1ccccc1C(=O)OC (stereo not given) = > 42 µM (inactive)
CCOc1ccc(NC(=O)CSc2nnc(Cc3csc(C)n3)o2)cc1 = > 42 µM (inactive)

What measured AC50 goes with Cc1cc(C)cc(OCC(=O)NC2CCCc3ccccc32)c1 (stereo not given) ? > 42 µM (inactive)

What measured AC50 goes with `Cc1cc(=O)oc(C)c1C(=O)Nc1ccc(Cl)cn1` ? > 42 µM (inactive)

What measured AC50 goes with `Cc1ccccc1CSc1n[nH]c(NS(=O)(=O)c2ccccc2)n1` ? > 21 µM (inactive)
